Tested on: Peptoniphilus asaccharolyticus
protocol_text: Antibacterial activity against beta-lactamase producing Peptoniphilus asaccharolyticus by CLSI agar dilution method
Format: functional
assay_readout: MIC90 (µg/mL)
Numeric answer only, unit µg/mL assumed.

Answered examples (6):
[
  {
    "structure_as_smiles": "CO[C@@]1(NC(=O)CSCC#N)C(=O)N2C(C(=O)O)=C(CSc3nnnn3C)CS[C@@H]21",
    "result_unit": "µg/mL",
    "MIC90": 8
  },
  {
    "structure_as_smiles": "C[C@@H](O)[C@H]1C(=O)N2C(C(=O)O)=C(S[C@@H]3CN[C@H](C(=O)N(C)C)C3)[C@H](C)[C@H]12",
    "result_unit": "µg/mL",
    "MIC90": 0.5
  },
  {
    "structure_as_smiles": "C[C@@H](O)[C@H]1C(=O)N2C(C(=O)O)=C(S[C@@H]3CN[C@H](C(=O)Nc4cccc(C(=O)O)c4)C3)[C@H](C)[C@H]12",
    "result_unit": "µg/mL",
    "MIC90": 1
  },
  {
    "structure_as_smiles": "C[C@H]1COc2c(N3CCN(C)CC3)c(F)cc3c(=O)c(C(=O)O)cn1c23.C[C@H]1COc2c(N3CCN(C)CC3)c(F)cc3c(=O)c(C(=O)O)cn1c23.O",
    "result_unit": "µg/mL",
    "MIC90": 32
  },
  {
    "structure_as_smiles": "CCN1CCN(C(=O)N[C@@H](C(=O)N[C@@H]2C(=O)N3[C@@H]2SC(C)(C)[C@@H]3C(=O)O)c2ccccc2)C(=O)C1=O",
    "result_unit": "µg/mL",
    "MIC90": 8
  },
  {
    "structure_as_smiles": "Cc1ncc([N+](=O)[O-])n1CCO",
    "result_unit": "µg/mL",
    "MIC90": 16
  }
]

From here, focus on the item given below.
Entry C[C@@H](O)[C@H]1C(=O)N2C(C(=O)O)=C(S[C@@H]3CN[C@H](CNS(N)(=O)=O)C3)[C@H](C)[C@H]12 — recorded MIC90 = 0.5
